Quick list: remaining activity at 250 µM per entry.
- targetOfAssay: CaFADS RFK activity (Corynebacterium ammoniagenes, UniProt Q59263)
- Construct: Recombinant CaFADS was overexpressed in BL21 (DE3) E. coli cells and purified as previously described; made in house; host or cells: E. coli BL21 (DE3)
- Sequence (Q59263 whole entry): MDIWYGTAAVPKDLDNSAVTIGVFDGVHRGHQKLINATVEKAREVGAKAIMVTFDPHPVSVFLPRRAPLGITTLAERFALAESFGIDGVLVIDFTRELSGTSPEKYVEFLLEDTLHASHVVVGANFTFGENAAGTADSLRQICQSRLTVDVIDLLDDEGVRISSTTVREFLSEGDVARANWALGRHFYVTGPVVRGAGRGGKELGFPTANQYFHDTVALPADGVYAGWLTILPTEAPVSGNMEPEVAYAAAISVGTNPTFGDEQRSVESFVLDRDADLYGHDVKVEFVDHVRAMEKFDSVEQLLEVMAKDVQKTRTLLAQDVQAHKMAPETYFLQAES
- methodNotes: RFK activity of CaFADS in the presence of HTS hits (flavins separated by HPLC)
- Type: biochemical
- particulars: pH 7, read-out: % Residual RFK activity
Counter-ions that a name gives are not always drawn.

In [3]: df
Out[3]:
                                   compound    reading
0  CC(C)n1c(/C=C/C(O)CC(O)CC(=O)O)c(-c2ccc(F)cc2)c2ccccc21 (stereo not shown) [HTS hit 37, fluvastatin sodium salt]       ≤ 5%
1  Cc1c(Nc2ncccc2C(=O)O)cccc1C(F)(F)F [HTS hit 31, flunixin meglumine]      ≥ 75%
2  CCCCCCCCCCCCCCCC[N+](C)(C)CCN(Cc1ccc(OC)cc1)c1ncccn1 [HTS hit 9, thonzonium bromide]       ≤ 5%
3  CC/C(=C(/CC)c1ccc(O)cc1)c1ccc(O)cc1 [HTS hit 32, diethylstilbestrol]  50 to 75%

INPUT: Using known records, supply remaining activity at 250 µM for O=C(O)CCc1nc(-c2ccccc2)c(-c2ccccc2)o1 [HTS hit 43, oxaprozin]
OUTPUT: ≥ 75%

INPUT: Using known records, supply remaining activity at 250 µM for Cc1c(Cl)cccc1Nc1ccccc1C(=O)O [HTS hit 2]
OUTPUT: ≥ 75%

INPUT: Using known records, supply remaining activity at 250 µM for O=C(O)c1cc(/N=N/c2ccc(S(=O)(=O)Nc3ccccn3)cc2)ccc1O [HTS hit 8, sulfasalazine]
OUTPUT: ≥ 75%

----------
- targetOfAssay: CaFADS FMNAT activity (Corynebacterium ammoniagenes, UniProt Q59263)
- Construct: Recombinant CaFADS was overexpressed in BL21 (DE3) E. coli cells and purified as previously described; made in house; host or cells: E. coli BL21 (DE3)
- Sequence (Q59263 whole entry): as above
- methodNotes: FMNAT activity of CaFADS: residual activity, IC50, inhibition mechanism (HPLC)
- Type: biochemical
- particulars: pH 7, read-out: % Residual FMNAT activity
Where a name gives a salt, the structure may show the parent alone.
observedProperty: remaining activity at 250 µM

Guide cases for remaining activity at 250 µM, answers given:
In [3]: df
Out[3]:
                                   compound  reading
0  CCCCC(CC)CNC(=N)NC(=N)NCCCCCCNC(=N)NC(=N)NCC(CC)CCCC (stereo not shown) [HTS hit 33, alexidine dihydrochloride]     ≤ 5%
1  CCCCCCCCCCCCCCCC[N+](C)(C)CCN(Cc1ccc(OC)cc1)c1ncccn1 [HTS hit 9, thonzonium bromide]     ≤ 5%
2  CN1CCCN=C1/C=C/c1cccc(O)c1 [HTS hit 19, oxantel pamoate]     ≤ 5%

INPUT: Using known records, supply remaining activity at 250 µM for `Cc1c(Cl)cccc1Nc1ccccc1C(=O)O`
OUTPUT: ≤ 5%

INPUT: Using known records, supply remaining activity at 250 µM for CC(C)n1c(/C=C/C(O)CC(O)CC(=O)O)c(-c2ccc(F)cc2)c2ccccc21 (stereo not shown) [HTS hit 37, fluvastatin sodium salt]
OUTPUT: ≤ 5%

INPUT: Using known records, supply remaining activity at 250 µM for `O=C(O)CCc1nc(-c2ccccc2)c(-c2ccccc2)o1`
OUTPUT: ≤ 5%

INPUT: Using known records, supply remaining activity at 250 µM for `O=C(O)c1cccnc1Nc1cccc(C(F)(F)F)c1`
OUTPUT: ≤ 5%

----------
- targetOfAssay: SpnFADS RFK activity (Streptococcus pneumoniae)
- Sequence (A0A0H2UPY5 entry or part of it): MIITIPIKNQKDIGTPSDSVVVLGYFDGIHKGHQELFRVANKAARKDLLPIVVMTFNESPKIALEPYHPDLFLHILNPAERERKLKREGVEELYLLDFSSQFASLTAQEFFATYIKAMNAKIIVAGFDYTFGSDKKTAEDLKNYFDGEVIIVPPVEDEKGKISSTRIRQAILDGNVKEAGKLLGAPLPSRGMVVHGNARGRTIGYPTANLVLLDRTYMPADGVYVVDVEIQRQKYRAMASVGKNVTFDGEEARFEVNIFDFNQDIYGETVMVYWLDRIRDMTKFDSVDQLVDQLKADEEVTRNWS
- methodNotes: biochemical
- particulars: SpnFADS; compounds assayed 0–100 μM; 25 °C; read-out: RFK activity IC50
Structures can show the parent of a compound that is named as a salt.
Quick list: IC50 per entry.
Write it as a number; the unit µM goes unstated.

compound	reading
CCCCCCCCCCCCCCCC[N+](C)(C)CCN(Cc1ccc(OC)cc1)c1ncccn1 [HTS hit 9, thonzonium bromide]	6
CCCCC(CC)CNC(=N)NC(=N)NCCCCCCNC(=N)NC(=N)NCC(CC)CCCC (centres unmarked) [HTS hit 33, alexidine dihydrochloride]	33

INPUT: Using known records, supply IC50 for `O=C(O)CCc1nc(-c2ccccc2)c(-c2ccccc2)o1`
OUTPUT: 14

----------
- Test system: S. pneumoniae ATCC 49619
- methodNotes: MIC by resazurin microplate assay (broth microdilution)
- Format: cell-based, Streptococcus pneumoniae
- particulars: Streptococcus pneumoniae, ATCC49619, 10 h; read-out: Minimal inhibitory concentration (MIC) S. pneumoniae
Counter-ions that a name gives are not always drawn.
observedProperty: MIC

Guide cases for MIC, answers given:
molecule	targetOfAssay	observedProperty	reading
Cc1c(Nc2ncccc2C(=O)O)cccc1C(F)(F)F	S. pneumoniae ATCC 49619	MIC	> 64 µM
CC(C)n1c(/C=C/C(O)CC(O)CC(=O)O)c(-c2ccc(F)cc2)c2ccccc21 (stereo not shown) [HTS hit 37, fluvastatin sodium salt]	S. pneumoniae ATCC 49619	MIC	> 64 µM
COc1cc(-c2ccc(/N=N/c3ccc4c(S(=O)(=O)O)cc(S(=O)(=O)O)c(N)c4c3O)c(OC)c2)ccc1/N=N/c1ccc2c(S(=O)(=O)O)cc(S(=O)(=O)O)c(N)c2c1O	S. pneumoniae ATCC 49619	MIC	> 64 µM
Cc1c(Cl)cccc1Nc1ccccc1C(=O)O	S. pneumoniae ATCC 49619	MIC	> 64 µM
O=C(O)c1cccnc1Nc1cccc(C(F)(F)F)c1	S. pneumoniae ATCC 49619	MIC	> 64 µM
CCc1oc2ccccc2c1C(=O)c1cc(Br)c(O)c(Br)c1	S. pneumoniae ATCC 49619	MIC	> 64 µM

INPUT: Using known records, supply MIC for CCCCCCCCCCCCCCCC[N+](C)(C)CCN(Cc1ccc(OC)cc1)c1ncccn1 [HTS hit 9, thonzonium bromide]
OUTPUT: 1 to 2 µM

----------
Quick list: remaining activity at 250 µM per entry.
- targetOfAssay: CaFADS RFK activity (Corynebacterium ammoniagenes, UniProt Q59263)
- Construct: Recombinant CaFADS was overexpressed in BL21 (DE3) E. coli cells and purified as previously described; made in house; host or cells: E. coli BL21 (DE3)
- methodNotes: RFK activity of CaFADS in the presence of HTS hits (flavins separated by HPLC)
- Format: biochemical
- particulars: pH 7, read-out: % Residual RFK activity
Where a name gives a salt, the structure may show the parent alone.

Guide cases for remaining activity at 250 µM, answers given:
compound	targetOfAssay	remaining activity at 250 µM
CCc1oc2ccccc2c1C(=O)c1cc(Br)c(O)c(Br)c1 [HTS hit 17, benzbromarone]	CaFADS RFK activity (Corynebacterium ammoniagenes, UniProt Q59263)	≥ 75%
CCCCC(CC)CNC(=N)NC(=N)NCCCCCCNC(=N)NC(=N)NCC(CC)CCCC (stereo not shown) [HTS hit 33, alexidine dihydrochloride]	CaFADS RFK activity (Corynebacterium ammoniagenes, UniProt Q59263)	≤ 5%
C/C=C(/C(=C/C)c1ccc(O)cc1)c1ccc(O)cc1 [HTS hit 35, dienestrol]	CaFADS RFK activity (Corynebacterium ammoniagenes, UniProt Q59263)	≤ 5%
O=C(O)c1cccnc1Nc1cccc(C(F)(F)F)c1 [HTS hit 11]	CaFADS RFK activity (Corynebacterium ammoniagenes, UniProt Q59263)	≥ 75%
COc1cc(-c2ccc(/N=N/c3ccc4c(S(=O)(=O)O)cc(S(=O)(=O)O)c(N)c4c3O)c(OC)c2)ccc1/N=N/c1ccc2c(S(=O)(=O)O)cc(S(=O)(=O)O)c(N)c2c1O [HTS hit 24, Chicago sky blue 6B]	CaFADS RFK activity (Corynebacterium ammoniagenes, UniProt Q59263)	≥ 75%

INPUT: Give measured remaining activity at 250 µM for Cc1cc2c(C(C)C)c(O)c(O)c(C=O)c2c(O)c1-c1c(C)cc2c(C(C)C)c(O)c(O)c(C=O)c2c1O [HTS hit 27, gossypol] (CaFADS RFK activity (Corynebacterium ammoniagenes, UniProt Q59263)).
OUTPUT: ≥ 75%

INPUT: Give measured remaining activity at 250 µM for CN1CCCN=C1/C=C/c1cccc(O)c1 [HTS hit 19, oxantel pamoate] (CaFADS RFK activity (Corynebacterium ammoniagenes, UniProt Q59263)).
OUTPUT: ≥ 75%

----------
Quick list: pIC50 per entry.
- targetOfAssay: CaFADS FMNAT activity (Corynebacterium ammoniagenes, UniProt Q59263)
- Construct: Recombinant CaFADS was overexpressed in BL21 (DE3) E. coli cells and purified as previously described
- methodNotes: FMNAT activity of CaFADS: residual activity, IC50, inhibition mechanism (HPLC)
The meaning of pIC50 here: minus log10 of the concentration in molar units.

>>> print(df.to_string())
                                   compound                             targetofassay  reading
0  Cc1c(Nc2ncccc2C(=O)O)cccc1C(F)(F)F [HTS hit 31, flunixin meglumine]  CaFADS FMNAT activity (Corynebacterium ammoniagenes, UniProt Q59263)     5.18
1  CCc1oc2ccccc2c1C(=O)c1cc(Br)c(O)c(Br)c1 [HTS hit 17, benzbromarone]  CaFADS FMNAT activity (Corynebacterium ammoniagenes, UniProt Q59263)     4.89

Proceeding to the next compound to report its pIC50.
INPUT: Using known records, supply pIC50 for O=C(O)CCc1nc(-c2ccccc2)c(-c2ccccc2)o1 [HTS hit 43, oxaprozin]
OUTPUT: 6.00
